test_protocol: NCI Yeast Anticancer Drug Screen. Data for the rad50 strain (AID 155);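 further: 0% = growth of vehicle-only cultures of the same strain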
condition_context: S. cerevisiae rad50 strain growth inhibition; at 50.0 µM; active compounds read high
About 79,000 compounds went through this panel and 15% of them were active in at least one assay; those are over-represented in the sample as a whole.
growth inhibition: recorded values

>  <compound>
O=C(O)c1cccc(C(=O)O)c1S(=O)Cc1ccccc1 (centres undefined)

>  <growth inhibition, %>
3.45

$$$$
>  <compound>
NC(=O)C1=CC2C3C=CC2(O)C(=O)OC3O1 (centres undefined)

>  <growth inhibition, %>
-15.3

$$$$
>  <compound>
O=C(/C=C/c1ccccc1Cl)c1ccccc1[N+](=O)[O-]

>  <growth inhibition, %>
96

$$$$
>  <compound>
Nc1ccc(N=Nc2ccc(C(=O)O)cc2)cc1

>  <growth inhibition, %>
-32.9

$$$$
>  <compound>
COc1ccc(-c2cc(N3CCN(c4ccccc4)CC3)c(C#N)c(=O)o2)cc1

>  <growth inhibition, %>
25.1

$$$$
>  <compound>
CC1C2=C(CC(C)(C)CC2=O)OC2=C1C(=O)CC(C)(C)C2

>  <growth inhibition, %>
-16.1

$$$$
>  <compound>
O=C(c1ccc(Cl)cc1)c1nnc(Cl)s1

>  <growth inhibition, %>
-4.7

$$$$
>  <compound>
O=C(O)CN(CCCCN(CC(=O)O)CC(=O)O)CC(=O)O

>  <growth inhibition, %>
-6.8

$$$$
>  <compound>
C1OC[C@@H]([C@H]2COCO2)O1

>  <growth inhibition, %>
-15.4

$$$$
>  <compound>
COc1cc(C2=N/C(=C\c3ccc(Cl)c(Cl)c3)C(=O)O2)cc(OC)c1OC

>  <growth inhibition, %>
-26.2

$$$$
>  <compound>
Nc1nc(N)c2nc3c(nc2n1)CCCC3

>  <growth inhibition, %>
-15.9

$$$$
>  <compound>
CCCCNc1ccc(S(=O)(=O)c2ccc(NCCCC)c([N+](=O)[O-])c2)cc1[N+](=O)[O-]

>  <growth inhibition, %>
19.6

$$$$
>  <compound>
O=C(c1ccccc1)N1C(=S)N=C(Nc2ccccc2)C1=Nc1ccccc1

>  <growth inhibition, %>
-15.8

$$$$
>  <compound>
NC(=O)c1csc(C2OC(CO)CC2O)n1 (centres undefined)

>  <growth inhibition, %>
4.55

$$$$
>  <compound>
Cc1ccc(C(=O)c2ccccc2)cc1

>  <growth inhibition, %>
26.1

$$$$
>  <compound>
CN(C)/C(=N/C(=O)Nc1ccccc1)SCc1ccccc1

>  <growth inhibition, %>
-10.5

$$$$
>  <compound>
CCCCCCCCCC(=O)Oc1cccc2onc(C)c12

>  <growth inhibition, %>
-21.2

$$$$
>  <compound>
C=C(C)C1Cc2c(cc(OC)c3c(=O)c4cccc(O)c4oc23)O1 (centres undefined)

>  <growth inhibition, %>
43.1

$$$$
>  <compound>
N#CC1(C#N)C2(c3ccccc3)OC(c3ccccc3)(c3cc4ccccc4cc32)C1(C#N)C#N

>  <growth inhibition, %>
1.75

$$$$
>  <compound>
C/C=C/C=N/SC(c1ccccc1)(c1ccccc1)c1ccccc1

>  <growth inhibition, %>
9.35

$$$$
>  <compound>
COc1ccccc1-c1coc2c(ccc3oc(C(C)C)cc32)c1=O

>  <growth inhibition, %>
-19.2

$$$$
>  <compound>
CC(=O)NNc1nc(C)c(C(=O)/C=C/c2ccc(Cl)cc2)s1

>  <growth inhibition, %>
44.2

$$$$
>  <compound>
CC(/C=C/c1ccccc1)=N\NC(=O)c1ccccc1

>  <growth inhibition, %>
44.8

$$$$
>  <compound>
CN1C(=O)N(c2ccccc2)C2(CCN(CC3COc4ccccc4O3)CC2)C1=O (centres undefined)

>  <growth inhibition, %>
4.05

$$$$
